Every entry's value here was drawn from patent US8247211B2.

- Tested on: Staphylococcus sp.
- Procedure details: In vitro antibacterial evaluation: minimum inhibitory concentration (MIC), broth dilution method
- Assay type: cell-based
- Condition set: strain GC 4538
Reported values of MIC Coagulase Negative Staphylococcus (GC 4538) for individual entries
Reported metric: MIC Coagulase Negative Staphylococcus (GC 4538) (µg/mL)

| Compound | Modifier | Numeric result |
| --- | --- | --- |
| CCCCCC(=O)OCC1OC(OC2C(CO)OC(Oc3ccc(CC4NC(=O)C(C(C)c5ccccc5)NC(=O)CNC(=O)C(CO)NC(=O)C(C(O)C5CNC(=N)N5C5OC(CO)C(O)C(O)C5O)NC(=O)C(C(O)C5CNC(=N)N5)NC4=O)cc3)C(O)C2O)C(O)C(O)C1O (centres unmarked) [Example 95b] | = | 1 |
| CCCCCCC(=O)OCC1OC(N2C(=N)NCC2C(O)C2NC(=O)C(C(O)C3CNC(=N)N3)NC(=O)C(Cc3ccc(OC4OC(CO)C(OC5OC(CO)C(O)C(O)C5O)C(O)C4O)cc3)NC(=O)C(C(C)c3ccccc3)NC(=O)CNC(=O)C(CO)NC2=O)C(O)C(O)C1O (centres unmarked) | > | 64 |

###

- Tested on: Escherichia coli
- Procedure details: In vitro antibacterial evaluation: minimum inhibitory concentration (MIC), broth dilution method
- Format: cell-based
- Condition set: 5×10^5 CFU/mL, 18 hours at 35° C.
Reported values of MIC Escherichia coli (GC 4559) for individual entries

| Compound | Modifier | MIC Escherichia coli (GC 4559), µg/mL |
| --- | --- | --- |
| CC(C)=CCCC1OCC2OC(OC3C(CO)OC(Oc4ccc(CC5NC(=O)C(C(C)c6ccccc6)NC(=O)CNC(=O)C(CO)NC(=O)C(C(O)C6CNC(=N)N6C6OC(CO)C(O)C(O)C6O)NC(=O)C(C(O)C6CNC(=N)N6)NC5=O)cc4)C(O)C3O)C(O)C(O)C2O1 (centres unmarked) | > | 64 |
| CC(c1ccccc1)C1NC(=O)CNC(=O)C(CO)NC(=O)C(C(O)C2CNC(=N)N2C2OC(CO)C(O)C(O)C2O)NC(=O)C(C(O)C2CNC(=N)N2)NC(=O)C(Cc2ccc(OC3OC(CO)C(OC4OC5COC(c6ccsc6)OC5C(O)C4O)C(O)C3O)cc2)NC1=O (centres unmarked) | = | 32 |

###

- System: Enterococcus sp.
- Procedure details: In vitro antibacterial evaluation: minimum inhibitory concentration (MIC), broth dilution method
- Type: cell-based
- Condition set: Enterococcus faecalis (GC 4553); broth dilution, 18 hours at 35° C.

| Molecule | MIC Enterococcus faecalis (GC 4553) [µg/mL] |
| --- | --- |
| CC(c1ccccc1)C1NC(=O)CNC(=O)C(CO)NC(=O)C(C(O)C2CN(Cc3ccc(-c4ccccc4)cc3)C(=N)N2C2OC(CO)C(O)C(O)C2O)NC(=O)C(C(O)C2CNC(=NCc3ccc(-c4ccccc4)cc3)N2Cc2ccc(-c3ccccc3)cc2)NC(=O)C(Cc2ccc(OC3OC(CO)C(OC4OC(CO)C(O)C(O)C4O)C(O)C3O)cc2)NC1=O (stereo not shown) | 8 |
| CC(c1ccccc1)C1NC(=O)CNC(=O)C(CO)NC(=O)C(C(O)C2CNC(=N)N2C2OC(CO)C(O)C(O)C2O)NC(=O)C(C(O)C2CNC(=N)N2)NC(=O)C(Cc2ccc3oc(SCc4ccccc4)nc3c2)NC1=O (stereo not shown) | 16 |

###

- Tested on: Enterococcus sp.
- Procedure details: In vitro antibacterial evaluation: minimum inhibitory concentration (MIC), broth dilution method
- Format: cell-based
- Condition set: Enterococcus faecium (GC 2243); 18 hours at 35° C.
Reported metric: MIC Enterococcus faecium (GC 2243)

| Compound | Reported metric | Result |
| --- | --- | --- |
| COc1ccc(COCC2OC(OC3C(CO)OC(Oc4ccc(CC5NC(=O)C(C(C)c6ccccc6)NC(=O)CNC(=O)C(CO)NC(=O)C(C(O)C6CNC(=N)N6C6OC(CO)C(O)C(O)C6O)NC(=O)C(C(O)C6CNC(=N)N6)NC5=O)cc4)C(O)C3O)C(O)C(O)C2O)cc1OCc1ccccc1 (stereo not shown) [Example 239] | MIC Enterococcus faecium (GC 2243) | 4 µg/mL |
| Cc1ccc(Oc2cccc(C3OCC4OC(OC5C(CO)OC(Oc6ccc(CC7NC(=O)C(C(C)c8ccccc8)NC(=O)CNC(=O)C(CO)NC(=O)C(C(O)C8CNC(=N)N8C8OC(CO)C(O)C(O)C8O)NC(=O)C(C(O)C8CNC(=N)N8)NC7=O)cc6I)C(O)C5O)C(O)C(O)C4O3)c2)cc1 (stereo not shown) [Example 197] | MIC Enterococcus faecium (GC 2243) | 64 µg/mL |
| CCCC(C)C1OCC2OC(OC3C(CO)OC(Oc4ccc(CC5NC(=O)C(C(C)c6ccc(Cl)cc6)NC(=O)CNC(=O)C(CO)NC(=O)C(C(O)C6CNC(=N)N6C6OC(CO)C(O)C(O)C6O)NC(=O)C(C(O)C6CNC(=N)N6)NC5=O)cc4)C(O)C3O)C(O)C(O)C2O1 (stereo not shown) [Example 194] | MIC Enterococcus faecium (GC 2243) | 1 µg/mL |
| CC(C)=CCN1CC(C(O)C2NC(=O)C(C(O)C3CNC(=N)N3)NC(=O)C(Cc3ccc(OC4OC(CO)C(OC5OC6COC7(OC6C(O)C5O)C5CC6CC(C5)CC7C6)C(O)C4O)cc3)NC(=O)C(C(C)c3ccccc3)NC(=O)CNC(=O)C(CO)NC2=O)N(C2OC(CO)C(O)C(O)C2O)C1=N (stereo not shown) [Example 225] | MIC Enterococcus faecium (GC 2243) | 4 µg/mL |

###

Reported values of MIC Staphylococcus aureus (GC 4542) for individual entries
- Tested on: Staphylococcus sp.
- Procedure details: In vitro antibacterial evaluation: minimum inhibitory concentration (MIC), broth dilution method
- Format: cell-based
- Condition set: strain GC 4542
- Description: […]
Reported metric: MIC Staphylococcus aureus (GC 4542) (µg/mL)

| Molecule | Unit of measure | Numeric result |
| --- | --- | --- |
| CC(c1ccccc1)C1NC(=O)CNC(=O)C(CO)NC(=O)C(C(O)C2CNC(=N)N2C2OC(CO)C(O)C(O)C2O)NC(=O)C(C(O)C2CNC(=N)N2)NC(=O)C(Cc2ccc(OC3OC(CO)C(OC4OC5COC(CC6CCCCC6)OC5C(O)C4O)C(O)C3O)cc2)NC1=O (centres unmarked) | µg/mL | 2 |
| Cc1ccc(Oc2cccc(C3OCC4OC(OC5C(CO)OC(Oc6ccc(CC7NC(=O)C(C(C)c8ccccc8)NC(=O)CNC(=O)C(CO)NC(=O)C(C(O)C8CNC(=N)N8C8OC(CO)C(O)C(O)C8O)NC(=O)C(C(O)C8CNC(=N)N8)NC7=O)cc6I)C(O)C5O)C(O)C(O)C4O3)c2)cc1 (centres unmarked) | µg/mL | 64 |
| CC(c1ccccc1)C1NC(=O)CNC(=O)C(CO)NC(=O)C(C(O)C2CN(Cc3ccc(C(F)(F)F)cc3)C(=N)N2C2OC(CO)C(O)C(O)C2O)NC(=O)C(C(O)C2CNC(=N)N2)NC(=O)C(Cc2ccc(OC3OC(CO)C(OC4OC5COC6(OC5C(O)C4O)C4CC5CC(C4)CC6C5)C(O)C3O)cc2)NC1=O (centres unmarked) | µg/mL | 16 |

###

- Test system: Enterococcus sp.
- Procedure details: In vitro antibacterial evaluation: minimum inhibitory concentration (MIC), broth dilution method
- Type: cell-based
- Condition set: Enterococcus faecalis (GC 6189); 18 hours at 35° C.
Reported metric: MIC Enterococcus faecalis (GC 6189) (µg/mL)

| Compound | Numeric result |
| --- | --- |
| CC(c1ccccc1)C1NC(=O)CNC(=O)C(CO)NC(=O)C(C(O)C2CNC(=N)N2C2OC(CO)C(O)C(O)C2O)NC(=O)C(C(O)C2CNC(=N)N2)NC(=O)C(Cc2ccc(OC3OC(CO)C(OC4OC(CO)C(O)C(OCc5ccc(OCc6ccccc6)cc5)C4O)C(O)C3O)cc2)NC1=O (stereo not shown) [Example 231c] | 4 |
| CC(c1ccccc1)C1NC(=O)CNC(=O)C(CO)NC(=O)C(C(O)C2CNC(=N)N2C2OC(CO)C(O)C(O)C2O)NC(=O)C(C(O)C2CNC(=N)N2)NC(=O)C(Cc2ccc(OC3OC(CO)C(OC4OC5COC(C)(c6ccc(F)cc6)OC5C(O)C4O)C(O)C3O)cc2)NC1=O (stereo not shown) [Example 216] | 4 |
| COc1ccc(COCC2OC(OC3C(CO)OC(Oc4ccc(CC5NC(=O)C(C(C)c6ccccc6)NC(=O)CNC(=O)C(CO)NC(=O)C(C(O)C6CNC(=N)N6C6OC(CO)C(O)C(O)C6O)NC(=O)C(C(O)C6CNC(=N)N6)NC5=O)cc4)C(O)C3O)C(O)C(O)C2O)cc1 (stereo not shown) [Example 232] | 64 |
| N=C1NCC(C(O)C2NC(=O)C(Cc3ccc(OC4OC(CO)C(OC5OC6COC(c7ccccc7)OC6C(O)C5O)C(O)C4O)cc3)NC(=O)C(CC3CCCCC3)NC(=O)CNC(=O)C(CO)NC(=O)C(C(O)C3CNC(=N)N3C3OC(CO)C(O)C(O)C3O)NC2=O)N1 (stereo not shown) [Example 199] | 2 |
| CC(c1ccccc1)C1NC(=O)CNC(=O)C(CO[Si](C)(C)C(C)(C)C)NC(=O)C(C(O)C2CNC(=N)N2C2OC3COC(C)(C)OC3C3OC(C)(C)OC32)NC(=O)C(C(O)C2CNC(=N)N2)NC(=O)C(Cc2ccc(O)cc2)NC1=O (stereo not shown) [Example 248] | 32 |
| COc1ccc(COCC2OC(OC3C(CO)OC(Oc4ccc(CC5NC(=O)C(C(C)c6ccccc6)NC(=O)CNC(=O)C(CO)NC(=O)C(C(O)C6CNC(=N)N6C6OC(CO)C(O)C(O)C6O)NC(=O)C(C(O)C6CNC(=N)N6)NC5=O)cc4)C(O)C3O)C(O)C(O)C2O)cc1F (stereo not shown) [Example 237] | 16 |
| CC(c1ccccc1)C1NC(=O)CNC(=O)C(CO)NC(=O)C(C(O)C2CNC(=N)N2C2OC(CO)C(O)C(O)C2O)NC(=O)C(C(O)C2CNC(=N)N2)NC(=O)C(Cc2ccc(OC3OC(CO)C(OC4OC(COCC=Cc5ccc(N(C)C)cc5)C(O)C(O)C4O)C(O)C3O)cc2)NC1=O (stereo not shown) [Example 243] | 64 |
